src = ChEMBL document CHEMBL1201862

tested on: LOX IMVI; test: NCI tumour cell line growth inhibition, 48 h
Calls of active or inactive are those of the source. Cut-off read from the data, not from the text of the source: active = GI50 up to about 1.1 µM and inactive = higher.
reported_property: GI50

# smiles_repr, experimental_target, GI50
rows = [
    ("CCOC(CN(C)C(=S)Nc1cccc2ccccc12)OCC", "LOX IMVI", "> 10 µM (inactive)"),
    ("O=C1c2ccccc2C(=O)N1C/C=N/NS(=O)(=O)c1cccc([N+](=O)[O-])c1", "LOX IMVI", "> 100 µM (inactive)"),
]

Give recorded GI50. CC(C)N/C(N)=N/C#N > 100 µM (inactive)

Please list GI50 recorded for the compound C/C(=C\C(=O)Nc1ccc2[nH]nnc2c1)Nc1ccc2[nH]nnc2c1 > 100 µM (inactive)

Return the recorded GI50 value; entry: CNc1nc(=O)c(C#N)c(-c2ccc(C)cc2)s1 > 100 µM (inactive)

Return the recorded GI50 value; entry: N[C@H]1CCc2c1nc1c(c2-c2ccccc2)CC[C@@H]1N 14 µM (inactive)

Note GI50 for the compound shown: O=C(/C=C/c1ccc(OCCCCCCCCCCOc2ccc(/C=C/C(=O)c3ccc(Cl)cc3)cc2)cc1)c1ccc(Cl)cc1 > 100 µM (inactive)

Using known records, supply GI50 for CCc1cccc(C)c1NC(=O)C(=O)Cc1nc2ccccc2o1 > 100 µM (inactive)
